Tested on: panel of 290 distinct kinases (321 in the larger panel), excluding mutant variants
conditions: kinase selectivity score, value marked * (larger kinase panel); class symbols
testReadout: S35

Below, each entry is followed by its recorded S35 result.
| compound | S35 |
| --- | --- |
| COc1cc2ncnc(Oc3cccc(NC(=O)Nc4cc(C(F)(F)F)nn4-c4ccc(C)cc4)c3)c2cc1OC [Ex 172] | C* (0.20 < C ≦ 0.40) |
| COCCOc1cc2ncnc(Oc3cccc(NC(=O)Nc4cccc(C(C)(C)C)c4)c3)c2cc1OC [Ex 119] | C* (0.20 < C ≦ 0.40) |
| COc1cc2ncnc(Oc3cccc(NC(=O)Nc4cc(C(C)(CF)CF)nn4-c4ccccc4)c3)c2cc1OC [Ex 167] | D* (D > 0.40) |
| COc1cc2ncnc(Oc3cccc(NC(=O)Nc4cc(C(F)(F)F)nn4-c4ccc(F)cc4)c3)c2cc1OC [Ex 171] | C* (0.20 < C ≦ 0.40) |
| COc1cc2ncnc(Sc3cccc(NC(=O)Nc4cc(C(F)(F)F)nn4C)c3)c2cc1OC [Ex 193] | D* (D > 0.40) |
| CCOC(=O)Cn1nc(C(C)(C)C)cc1NC(=O)Nc1cccc(Oc2ncnc3cc(OC)c(OC)cc23)c1 [Ex 166] | C* (0.20 < C ≦ 0.40) |

So what's the measured S35 for this one? COc1cc2ncnc(Sc3cccc(NC(=O)Nc4ccc(C(F)(F)F)c(F)c4)c3)c2cc1OC [Ex 188] B* (0.10 < B ≦ 0.20)

Okay, and COc1cc2ncnc(Oc3cccc(NC(=O)Nc4cc(C(C)C)on4)c3)c2cc1OC [Ex 133] ? C* (0.20 < C ≦ 0.40)

Okay, and COc1cc2ncnc(Sc3cccc(NC(=O)Nc4cc(C(C)(C)F)no4)c3)c2cc1OC [Ex 187] ? C* (0.20 < C ≦ 0.40)

Okay, and COc1cc2ncnc(Oc3cccc(NC(=O)Nc4cc(C5CCCC5)no4)c3)c2cc1OC [Ex 163] ? C* (0.20 < C ≦ 0.40)

Okay, and COc1cc2ncnc(Oc3cccc(NC(=O)Nc4cc(C(F)(F)F)ncn4)c3)c2cc1OC [Ex 146] ? B* (0.10 < B ≦ 0.20)

Okay, and COc1cc2ncnc(Sc3cccc(NC(=O)Nc4ccc(C(F)(F)F)c(OC)c4)c3)c2cc1OC [Ex 190] ? B* (0.10 < B ≦ 0.20)

Okay, and COc1cc2ncnc(Oc3cccc(NC(=O)Nc4cc(C(=O)N5CCOCC5)cc(C(F)(F)F)c4)c3)c2cc1OC [Ex 149] ? B* (0.10 < B ≦ 0.20)

###

pKd: −log10 of the molar value. Counter-ions that a name gives are not always drawn.
# pKd per entry for UniProtKB P04049
# Sequence (P04049 whole entry): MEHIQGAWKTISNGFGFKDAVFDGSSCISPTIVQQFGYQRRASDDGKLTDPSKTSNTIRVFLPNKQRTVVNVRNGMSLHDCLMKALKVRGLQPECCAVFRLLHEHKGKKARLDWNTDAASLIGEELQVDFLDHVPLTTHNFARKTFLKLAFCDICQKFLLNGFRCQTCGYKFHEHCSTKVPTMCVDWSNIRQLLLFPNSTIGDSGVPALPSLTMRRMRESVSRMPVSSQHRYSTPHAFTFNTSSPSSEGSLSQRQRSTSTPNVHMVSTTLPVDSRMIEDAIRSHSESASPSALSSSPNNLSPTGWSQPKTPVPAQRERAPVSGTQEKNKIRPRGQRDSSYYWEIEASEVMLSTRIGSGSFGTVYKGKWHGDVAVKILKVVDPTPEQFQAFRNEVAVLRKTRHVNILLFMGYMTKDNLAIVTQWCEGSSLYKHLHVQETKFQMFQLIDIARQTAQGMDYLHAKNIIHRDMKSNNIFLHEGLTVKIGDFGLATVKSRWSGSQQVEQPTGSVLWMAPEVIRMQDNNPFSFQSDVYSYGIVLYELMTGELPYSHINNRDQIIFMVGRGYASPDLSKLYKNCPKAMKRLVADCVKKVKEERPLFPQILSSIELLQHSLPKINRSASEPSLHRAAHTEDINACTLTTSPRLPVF

Below, each entry is followed by its recorded pKd result.
| compound | recordedMeasurement |
| --- | --- |
| COc1cc2ncnc(Sc3cccc(NC(=O)Nc4cc(C(C)(CF)CF)nn4-c4ccccc4)c3)c2cc1OC [Ex 196] | < 6.00 |
| COCCOc1cc2ncnc(Oc3cccc(NC(=O)Nc4ccc(OC)c(C(F)(F)F)c4)c3)c2cc1OC [Ex 139] | > 6.60 |

So what's the measured pKd for this one? COc1cc2ncnc(Oc3cccc(NC(=O)Nc4cc(C(F)(F)F)n(C)n4)c3)c2cc1OC [Ex 165] > 6.60

Okay, and COc1cc2c(Oc3cccc(NC(=O)Nc4cc(C(C)(C)C)on4)c3)ncnc2cc1O[C@H]1CCNC1 [Ex 96, dihydrochloride] ? > 6.60
